These entries and their values trace back to ChEMBL document CHEMBL3352542.

For each record, write down the corresponding zone of inhibition at 200 µg/disc.
tested on: Escherichia coli; assay: Antimicrobial activity against Escherichia coli assessed as inhibition zone at 200 ug/disk after 24 hrs by disc-diffusion method; type: functional; conditions: read-out: IZ
Answers are plain numbers, in mm.

| Compound | Value Observed |
| --- | --- |
| Cc1ccc2nc(Sc3sc(N)nc3C)n(Cc3ccccc3)c(=O)c2c1 | 8 |

Record zone of inhibition at 200 µg/disc per entry; entries follow.
1. COc1cc2nc(Sc3nnc(N)s3)n(-c3ccc(Oc4ccccc4)cc3)c(=O)c2cc1OC
2. Nc1nnc(Sc2nc3ccc(Cl)cc3c(=O)n2-c2ccccc2)s1

1. 8
2. 8

Batch request: zone of inhibition at 200 µg/disc per item, same order as input.
1. CC(=O)NS(=O)(=O)c1ccc(N)cc1 [SULFACETAMIDE]
2. COc1cc2nc(Sc3sc(N)nc3C)n(-c3ccccc3)c(=O)c2cc1OC

1: 18; 2: 8

###

tested on: SF-268; assay: Growth inhibition of human SF268 cells at 10 uM after 48 hrs; assay type: functional; details: SF-268, 48 h, read-out: GI
Readout Label: inhibition of growth at 10 µM
Please answer using a numeric value trailed by its unit.

Previously resolved entries follow.
| Cpd Smiles | inhibition of growth at 10 µM |
| --- | --- |
| Cc1ccc2nc(Sc3sc(N)nc3C)n(-c3ccc(Cl)cc3)c(=O)c2c1 | 13.2% |
| COc1ccc(-n2c(Sc3sc(N)nc3C)nc3ccc(C)cc3c2=O)cc1 | 10.6% |

The following compounds each have a reported value; give each one's inhibition of growth at 10 µM.
1. Cc1nc(N)sc1Sc1nc2ccc(Cl)cc2c(=O)n1Cc1ccccc1
2. Cc1ccc2nc(Sc3sc(N)nc3C)n(Cc3ccccc3)c(=O)c2c1

1: 13.3%; 2: 10.8%

###

Data export: pIC50 values recorded with UniProt P00376.
Give bare numbers, as −log10 of the molar value.

Example compounds with recorded pIC50:
| Cpd Smiles | pIC50 |
| --- | --- |
| Nc1nnc(Sc2nc3ccc(Cl)cc3c(=O)n2-c2ccc(Oc3ccccc3)cc2)s1 | 6.40 |
| Cc1ccc2nc(Sc3nnc(N)s3)n(-c3ccccc3)c(=O)c2c1 | 5.15 |
| Cc1ccc2nc(Sc3nnc(N)s3)n(-c3ccc(Oc4ccccc4)cc3)c(=O)c2c1 | 7.00 |

Go through the items and report each one's pIC50.
1. COc1ccc(-n2c(Sc3sc(N)nc3C)nc3ccc(C)cc3c2=O)cc1
2. COc1ccc(-n2c(Sc3nnc(N)s3)nc3cc(OC)c(OC)cc3c2=O)cc1

5.15
5.15

###

tested on: SNB-19; experiment: Growth inhibition of human SNB19 cells at 10 uM after 48 hrs; format: functional; settings: SNB-19, 48 h, read-out: GI
I'd appreciate it if you could supply inhibition of growth at 10 µM values for the items below.
Numbers only, in %.

| Cpd Smiles | inhibition of growth at 10 µM [%] |
| --- | --- |
| Cc1ccc2nc(Sc3sc(N)nc3C)n(-c3ccc(Cl)cc3)c(=O)c2c1 | 11.6 |
| COc1cc2nc(Sc3nnc(N)s3)n(-c3ccc(Cl)cc3)c(=O)c2cc1OC | 11.9 |
| Cc1nc(N)sc1Sc1nc2ccc(Cl)cc2c(=O)n1-c1ccc(Oc2ccccc2)cc1 | 30.7 |

Now, please, on to the next compound.
I am curious: what inhibition of growth at 10 µM value has been reported for "COc1ccc(-n2c(Sc3sc(N)nc3C)nc3ccc(C)cc3c2=O)cc1" ?
15.5

###

Give inhibition of growth at 10 µM for every item shown.
assay: Growth inhibition of human UACC257 cells at 10 uM after 48 hrs; assay type: functional; conditions: UACC-257, 48 h, read-out: GI
Answers are plain numbers, in %.

Examples with answers:
| Cpd Smiles | inhibition of growth at 10 µM, % |
| --- | --- |
| COc1cc2nc(Sc3sc(N)nc3C)n(-c3ccc(Oc4ccccc4)cc3)c(=O)c2cc1OC | 10.3 |
| Cc1ccc2nc(Sc3sc(N)nc3C)n(Cc3ccccc3)c(=O)c2c1 | 11.6 |
| Cc1ccc2nc(Sc3sc(N)nc3C)n(-c3ccc(Cl)cc3)c(=O)c2c1 | 13.6 |
| Nc1nnc(Sc2nc3ccc(Cl)cc3c(=O)n2-c2ccc(Cl)cc2)s1 | 12.3 |

API: the following record is the query input.
# inhibition of growth at 10 µM lookup, item "Cc1nc(N)sc1Sc1nc2ccc(Cl)cc2c(=O)n1-c1ccc(Oc2ccccc2)cc1"
24.3

###

Molecular target: Dihydrofolate reductase (Bos taurus, UniProt P00376)
Sequence (P00376 whole entry): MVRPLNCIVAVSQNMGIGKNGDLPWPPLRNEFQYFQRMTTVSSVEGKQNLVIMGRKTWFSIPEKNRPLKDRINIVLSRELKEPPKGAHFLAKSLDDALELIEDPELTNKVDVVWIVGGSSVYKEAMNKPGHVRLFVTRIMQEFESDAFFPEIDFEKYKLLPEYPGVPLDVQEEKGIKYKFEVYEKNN
Readout Label: pIC50
One number for each entry, as −log10 of the molar value.

// below: answered compounds
| Cpd Smiles | Assayed Target | Value Observed |
| --- | --- | --- |
| COc1cc2nc(Sc3nnc(N)s3)n(-c3ccc(Cl)cc3)c(=O)c2cc1OC | Dihydrofolate reductase (Bos taurus, UniProt P00376) | 5.22 |
| Nc1nnc(Sc2nc3ccc(Cl)cc3c(=O)n2Cc2ccccc2)s1 | Dihydrofolate reductase (Bos taurus, UniProt P00376) | 5.10 |
| Cc1ccc(-n2c(Sc3nnc(N)s3)nc3ccc(Cl)cc3c2=O)cc1 | Dihydrofolate reductase (Bos taurus, UniProt P00376) | 5.10 |
| Cc1nc(N)sc1Sc1nc2ccc(Cl)cc2c(=O)n1-c1ccc(Cl)cc1 | Dihydrofolate reductase (Bos taurus, UniProt P00376) | 5.10 |
| Nc1nnc(Sc2nc3ccc(Cl)cc3c(=O)n2-c2ccccc2)s1 | Dihydrofolate reductase (Bos taurus, UniProt P00376) | 5.22 |
| Cc1nc(N)sc1Sc1nc2ccc(Cl)cc2c(=O)n1-c1ccccc1 | Dihydrofolate reductase (Bos taurus, UniProt P00376) | 5.30 |

Record pIC50 per entry; entries follow.
1. Cc1ccc2nc(Sc3sc(N)nc3C)n(-c3ccc(Oc4ccccc4)cc3)c(=O)c2c1
2. COc1cc2nc(Sc3nnc(N)s3)n(-c3ccc(C)cc3)c(=O)c2cc1OC
3. Cc1ccc2nc(Sc3sc(N)nc3C)n(Cc3ccccc3)c(=O)c2c1
4. COc1ccc(-n2c(Sc3sc(N)nc3C)nc3ccc(Cl)cc3c2=O)cc1
5. Cc1ccc2nc(Sc3nnc(N)s3)n(-c3ccc(Cl)cc3)c(=O)c2c1
6. Cc1ccc(-n2c(Sc3nnc(N)s3)nc3ccc(C)cc3c2=O)cc1

1: 5.70; 2: 6.00; 3: 5.30; 4: 5.10; 5: 6.15; 6: 5.10

###

experiment: Growth inhibition of human UACC62 cells at 10 uM after 48 hrs; type: functional; conditions: UACC-62, 48 h, read-out: GI
Is inhibition of growth at 10 µM at least 20%? Then Met. If not, Not met.

| Cpd Smiles | Category |
| --- | --- |
| Cc1ccc(-n2c(Sc3nnc(N)s3)nc3ccc(C)cc3c2=O)cc1 | Not met |
| COc1ccc(-n2c(Sc3sc(N)nc3C)nc3ccc(C)cc3c2=O)cc1 | Not met |
| Cc1nc(N)sc1Sc1nc2ccc(Cl)cc2c(=O)n1Cc1ccccc1 | Not met |
| Cc1ccc2nc(Sc3sc(N)nc3C)n(Cc3ccccc3)c(=O)c2c1 | Met |

Is it the case that "COc1cc2nc(Sc3sc(N)nc3C)n(-c3ccc(Oc4ccccc4)cc3)c(=O)c2cc1OC" has inhibition of growth at 10 µM reaching or exceeding 20%?
Not met

Threshold query (inhibition of growth at 10 µM >= 20%) on "COc1ccc(-n2c(Sc3sc(N)nc3C)nc3ccc(Cl)cc3c2=O)cc1"
Not met

Entry "Cc1nc(N)sc1Sc1nc2ccc(Cl)cc2c(=O)n1-c1ccc(Oc2ccccc2)cc1" : is its inhibition of growth at 10 µM no less than 20%?
Met

Tell me whether inhibition of growth at 10 µM is at least 20% here: "COc1cc2nc(Sc3nnc(N)s3)n(-c3ccc(Oc4ccccc4)cc3)c(=O)c2cc1OC"
Met

Check this compound for inhibition of growth at 10 µM at or above 20%: "Nc1nnc(Sc2nc3ccc(Cl)cc3c(=O)n2Cc2ccccc2)s1"
Not met

Record "Cc1ccc2nc(Sc3sc(N)nc3C)n(-c3ccc(Cl)cc3)c(=O)c2c1" ; criterion: inhibition of growth at 10 µM no lower than 20%. Met?
Met
